The following compounds have recorded pIC50 on Cholinesterase (Equus caballus).
Sequence (P81908 whole entry): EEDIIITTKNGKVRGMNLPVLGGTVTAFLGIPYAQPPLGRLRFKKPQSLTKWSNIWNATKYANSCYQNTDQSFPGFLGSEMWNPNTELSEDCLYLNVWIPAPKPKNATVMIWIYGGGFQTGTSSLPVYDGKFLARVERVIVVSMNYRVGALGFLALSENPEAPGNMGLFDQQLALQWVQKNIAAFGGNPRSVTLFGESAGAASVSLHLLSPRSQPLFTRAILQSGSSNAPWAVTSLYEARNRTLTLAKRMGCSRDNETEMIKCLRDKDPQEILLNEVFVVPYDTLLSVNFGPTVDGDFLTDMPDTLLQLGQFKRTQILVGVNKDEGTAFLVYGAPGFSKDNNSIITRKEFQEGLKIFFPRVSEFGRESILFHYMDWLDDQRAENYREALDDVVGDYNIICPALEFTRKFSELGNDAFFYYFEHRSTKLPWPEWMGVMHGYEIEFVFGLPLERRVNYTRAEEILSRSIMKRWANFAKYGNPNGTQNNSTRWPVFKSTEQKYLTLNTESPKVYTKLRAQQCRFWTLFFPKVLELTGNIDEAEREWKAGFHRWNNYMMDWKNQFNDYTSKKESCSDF
pIC50: −log10 of the molar value.
propertyName: pIC50

INSERT INTO measurements (testsmiles, experimentaltarget, recordedvalue) VALUES
  ('O=S(=O)(c1ccccc1)n1ccc2c(OCCNCCCCNc3c4c(nc5ccccc35)CCCC4)cccc21', 'Cholinesterase (Equus caballus)', 8.03),
  ('O=S(=O)(c1ccccc1)n1ccc2c(OCCNCCNCc3cccc(C(F)(F)F)c3)cccc21', 'Cholinesterase (Equus caballus)', 5.67),
  ('O=S(=O)(c1ccccc1)n1ccc2c(OCCNCCCCCNCc3ccccc3)cccc21', 'Cholinesterase (Equus caballus)', 6.40),
  ('O=S(=O)(c1ccccc1)n1ccc2c(OCCNCCCCCCNc3c4c(nc5ccccc35)CCCC4)cccc21', 'Cholinesterase (Equus caballus)', 8.39),
  ('O=S(=O)(c1ccccc1)n1ccc2c(OCCNCCNCc3cccc(Cl)c3)cccc21', 'Cholinesterase (Equus caballus)', 5.97),
  ('O=S(=O)(c1ccccc1)n1ccc2c(OCCNCCCNCc3ccccc3)cccc21', 'Cholinesterase (Equus caballus)', 6.15),
  ('O=S(=O)(c1ccccc1)n1ccc2c(OCCNCCCCNCc3ccccc3)cccc21', 'Cholinesterase (Equus caballus)', 6.05),
  ('O=S(=O)(c1ccccc1)n1ccc2c(OCCNCCCNc3c4c(nc5ccccc35)CCCC4)cccc21', 'Cholinesterase (Equus caballus)', 7.73),
  ('O=S(=O)(c1ccccc1)n1ccc2c(OCCNCCNCc3cc(Cl)cc(Cl)c3)cccc21', 'Cholinesterase (Equus caballus)', 5.78),
  ('O=S(=O)(c1ccccc1)n1ccc2c(OCCNCCNc3c4c(nc5ccccc35)CCCC4)cccc21', 'Cholinesterase (Equus caballus)', 7.61),
  ('O=S(=O)(c1ccccc1)n1ccc2c(OCCNCCNCc3ccccc3Cl)cccc21', 'Cholinesterase (Equus caballus)', 6.23),
  ('O=S(=O)(c1ccccc1)n1ccc2c(OCCNCCCCCNc3c4c(nc5ccccc35)CCCC4)cccc21', 'Cholinesterase (Equus caballus)', 8.66),
  ('Cc1cccc(CNCCNCCOc2cccc3c2ccn3S(=O)(=O)c2ccccc2)c1', 'Cholinesterase (Equus caballus)', 5.97),
  ('CCN(C)C(=O)Oc1cccc(CNCCNCCOc2cccc3c2ccn3S(=O)(=O)c2ccccc2)c1', 'Cholinesterase (Equus caballus)', 6.34),
  ('O=[N+]([O-])c1ccc(CNCCNCCOc2cccc3c2ccn3S(=O)(=O)c2ccccc2)cc1', 'Cholinesterase (Equus caballus)', 5.37),
  ('O=S(=O)(c1ccccc1)n1ccc2c(OCCNCCNCc3ccccc3)cccc21', 'Cholinesterase (Equus caballus)', 6.28),
  ('O=S(=O)(c1ccccc1)n1ccc2c(OCCNCCNCc3ccc(F)cc3)cccc21', 'Cholinesterase (Equus caballus)', 5.88),
  ('O=S(=O)(c1ccccc1)n1ccc2c(OCCNCCNCc3ccc(Cl)cc3)cccc21', 'Cholinesterase (Equus caballus)', 5.70),
  ('COc1ccc(CNCCNCCOc2cccc3c2ccn3S(=O)(=O)c2ccccc2)cc1', 'Cholinesterase (Equus caballus)', 5.68);
